Sourced from patent US9469647B2

Assay: Bridging study of monophosphate salt and free base in dog (plasma pharmacokinetics)
Format: in vivo
Conditions: female, po, 40 mg/kg, dog F-1102, oral gavage
Counter-ions that a name gives are not always drawn.
measured_endpoint: AUC (ng·h/mL)
Just the number in ng·h/mL, nothing appended.

Entry CN1C(=O)c2c(nn(Cc3ccc(-c4cccc(F)n4)cc3)c2Nc2ccccc2)N2C1=N[C@@H]1CCC[C@@H]12 [Phosphate salt] — recorded AUC = 21300

* * *

Experiment: Bridging study of monophosphate salt and free base in dog (plasma pharmacokinetics)
Format: in vivo
Conditions: male, po, 40 mg/kg, dog M-2002, oral capsule
Counter-ions that a name gives are not always drawn.
measured_endpoint: Cmax (ng/mL)
The figure you give is taken to be in ng/mL; do not add the unit.

Cmax reading for CN1C(=O)c2c(nn(Cc3ccc(-c4cccc(F)n4)cc3)c2Nc2ccccc2)N2C1=N[C@@H]1CCC[C@@H]12 [Phosphate salt] : 1530

* * *

Experiment: Bridging study of monophosphate salt and free base in dog (plasma pharmacokinetics)
Format: in vivo
Details: male, po, 40 mg/kg, dog M-2002, oral capsule
Where a name gives a salt, the structure may show the parent alone.
measured_endpoint: AUC (ng·h/mL)
Report the value in ng·h/mL with no unit label.

Reported AUC ( CN1C(=O)c2c(nn(Cc3ccc(-c4cccc(F)n4)cc3)c2Nc2ccccc2)N2C1=N[C@@H]1CCC[C@@H]12 [Phosphate salt] ) = 21900

* * *

Assay: Bridging study of monophosphate salt and free base in dog (plasma pharmacokinetics)
Type: in vivo
Settings: male, po, 40 mg/kg, dog M-5001, oral gavage
measured_endpoint: Tmax (h)
Output spec: scalar in h, unitless text.

The reported value for CN1C(=O)c2c(nn(Cc3ccc(-c4cccc(F)n4)cc3)c2Nc2ccccc2)N2C1=N[C@@H]1CCC[C@@H]12 [Free base API (amorphous)] in terms of Tmax is 4

* * *

Test: Single rising dose clinical study (pharmacokinetic profile)
Assay type: in vivo
Conditions: plasma; human; single oral dose 300 mg, aqueous solution; Mean (SD)
Counter-ions that a name gives are not always drawn.
measured_endpoint: Tmax (h)
Give the value, in units of h, as a plain number.

For CN1C(=O)c2c(nn(Cc3ccc(-c4cccc(F)n4)cc3)c2Nc2ccccc2)N2C1=N[C@@H]1CCC[C@@H]12 [Phosphate salt] the molecule record lists Tmax as 1

* * *

Test: Bridging study of monophosphate salt and free base in dog (plasma pharmacokinetics)
Type: in vivo
Settings: po, 40 mg/kg, Mean, oral capsule
Structures can show the parent of a compound that is named as a salt.
measured_endpoint: Cmax (ng/mL)
Give the value, in units of ng/mL, as a plain number.

GET /value?item= CN1C(=O)c2c(nn(Cc3ccc(-c4cccc(F)n4)cc3)c2Nc2ccccc2)N2C1=N[C@@H]1CCC[C@@H]12 [Phosphate salt] &field=Cmax returns 1330

* * *

Test: Bridging study of monophosphate salt and free base in dog (plasma pharmacokinetics)
Type: in vivo
Conditions: male, po, 40 mg/kg, dog M-5002, oral gavage, read-out: E Half-life (converted)
measured_endpoint: half-life (h)
Express your answer in h, writing the number without its unit.

Given item CN1C(=O)c2c(nn(Cc3ccc(-c4cccc(F)n4)cc3)c2Nc2ccccc2)N2C1=N[C@@H]1CCC[C@@H]12 [Free base API (amorphous)] , the value recorded as its half-life is 16.7

* * *

Test: Bridging study of monophosphate salt and free base in dog (plasma pharmacokinetics)
Assay type: in vivo
Conditions: female, po, 40 mg/kg, dog F-1101, oral gavage
Structures can show the parent of a compound that is named as a salt.
measured_endpoint: Cmax (ng/mL)
State just the number; it will be interpreted in ng/mL.

Data point: CN1C(=O)c2c(nn(Cc3ccc(-c4cccc(F)n4)cc3)c2Nc2ccccc2)N2C1=N[C@@H]1CCC[C@@H]12 [Phosphate salt] ; Cmax = 1080
